# measured target: hDcn2^P (PONY domain of human DCUN1D2) (Homo sapiens, UniProt Q6PH85 62-259)
# Sequence (Q6PH85 62-259 limits assumed): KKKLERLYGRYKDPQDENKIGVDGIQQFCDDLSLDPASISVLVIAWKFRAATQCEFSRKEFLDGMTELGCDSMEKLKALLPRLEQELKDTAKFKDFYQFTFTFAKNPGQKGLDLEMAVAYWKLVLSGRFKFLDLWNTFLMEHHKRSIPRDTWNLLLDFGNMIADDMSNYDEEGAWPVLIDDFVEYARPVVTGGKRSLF
# assay method text: ITC, peptide titrated into Dcn PONY domain
pKd: −log10 of the molar value. Positions of bridges follow the written chain, without caps; N, C: chain ends. Non-standard residues stand in square brackets, D forms with d. S5 = C=CCCC[C@](C)(N)C(=O)O; Nle = CCCC[C@H](N)C(=O)O
Reported pKd values follow for various binders

- binder: "Ac-[Nle]LKLRQLQKKKQ-NH2 (SMILES CCCC[C@H](NC(C)=O)C(=O)N[C@@H](CC(C)C)C(=O)N[C@@H](CCCCN)C(=O)N[C@@H](CC(C)C)C(=O)N[C@@H](CCCNC(=N)N)C(=O)N[C@@H](CCC(N)=O)C(=O)N[C@@H](CC(C)C)C(=O)N[C@@H](CCC(N)=O)C(=O)N[C@@H](CCCCN)C(=O)N[C@@H](CCCCN)C(=O)N[C@@H](CCCCN)C(=O)N[C@@H](CCC(N)=O)C(N)=O) [yUbc12^Ac1-12 (NorLeu)]"
  pKd: 6.10
- binder: "Ac-[Nle]LKL[S5]QLQ[S5]KKQ-NH2 (staple 5-9; SMILES CCCC[C@H](NC(C)=O)C(=O)N[C@@H](CC(C)C)C(=O)N[C@@H](CCCCN)C(=O)N[C@@H](CC(C)C)C(=O)N[C@@]1(C)CCCC=CCCC[C@@](C)(C(=O)N[C@@H](CCCCN)C(=O)N[C@@H](CCCCN)C(=O)N[C@@H](CCC(N)=O)C(N)=O)NC(=O)[C@H](CCC(N)=O)NC(=O)[C@H](CC(C)C)NC(=O)[C@H](CCC(N)=O)NC1=O, Stapled synthetic peptide) [yUbc12^Ac1-12 (NorLeu) 5, 9]"
  pKd: 6.29
